# measured-target: EGFR(D770_N771insSVD) expressing Ba/F3 stable cell line (Homo sapiens, UniProt P00533, DUP768-770, cells depend on it)
# Sequence (P00533 with tags, fused parts or gaps DUP768-770): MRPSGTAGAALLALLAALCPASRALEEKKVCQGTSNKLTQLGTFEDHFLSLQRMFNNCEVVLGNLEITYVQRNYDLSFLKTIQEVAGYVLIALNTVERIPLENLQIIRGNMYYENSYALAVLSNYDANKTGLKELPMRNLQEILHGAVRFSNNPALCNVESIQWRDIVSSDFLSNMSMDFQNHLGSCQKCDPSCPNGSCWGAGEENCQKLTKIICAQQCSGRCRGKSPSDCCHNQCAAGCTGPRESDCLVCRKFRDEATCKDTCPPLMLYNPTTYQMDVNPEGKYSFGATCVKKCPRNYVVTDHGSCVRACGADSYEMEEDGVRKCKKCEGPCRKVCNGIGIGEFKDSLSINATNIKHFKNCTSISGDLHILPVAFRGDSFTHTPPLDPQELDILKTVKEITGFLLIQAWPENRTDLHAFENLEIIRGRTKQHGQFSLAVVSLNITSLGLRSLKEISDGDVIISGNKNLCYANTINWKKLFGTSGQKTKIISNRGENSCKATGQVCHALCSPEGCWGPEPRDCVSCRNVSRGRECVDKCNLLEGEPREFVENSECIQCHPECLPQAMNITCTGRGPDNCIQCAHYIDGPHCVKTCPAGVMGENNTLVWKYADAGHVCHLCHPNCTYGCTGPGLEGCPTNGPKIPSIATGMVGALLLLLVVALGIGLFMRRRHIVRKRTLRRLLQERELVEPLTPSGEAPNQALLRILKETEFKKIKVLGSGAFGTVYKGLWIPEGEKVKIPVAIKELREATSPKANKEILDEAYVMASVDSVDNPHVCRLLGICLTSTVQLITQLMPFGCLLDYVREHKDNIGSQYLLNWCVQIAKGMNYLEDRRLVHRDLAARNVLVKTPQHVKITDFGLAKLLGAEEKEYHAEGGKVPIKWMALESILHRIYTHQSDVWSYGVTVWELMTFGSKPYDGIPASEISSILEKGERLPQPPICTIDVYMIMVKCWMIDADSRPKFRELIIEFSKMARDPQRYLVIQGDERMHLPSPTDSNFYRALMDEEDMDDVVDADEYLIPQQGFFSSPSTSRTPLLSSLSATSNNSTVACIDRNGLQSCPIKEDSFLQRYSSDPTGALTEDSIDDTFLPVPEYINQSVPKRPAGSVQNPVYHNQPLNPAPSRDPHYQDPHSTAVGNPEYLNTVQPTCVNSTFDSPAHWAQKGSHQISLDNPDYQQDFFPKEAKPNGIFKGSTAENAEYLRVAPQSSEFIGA
# measurement-notes: Cellular proliferation (Alamar Blue) assay, EGFR(D770_N771insSVD) Ba/F3
# Type: cell-based
# condition-info: 72 hr, read-out: D770 IC50
endpoint: GI50 (nM)

structure | GI50, nM
C=CC(=O)Nc1ccc(F)c(Nc2nc(Nc3cnn(C)c3)ncc2-c2ccc(OC)c(OC)c2)c1 | 1050
C=CC(=O)Nc1ccc(F)c(Nc2nc(Nc3cnn(C)c3)ncc2-c2cc(F)c(Br)c(Cl)c2)c1 | 40
C=CC(=O)Nc1ccc(F)c(Nc2nc(Nc3cnn(C)c3)ncc2-c2ccc3c(c2)OCC3)c1 | 38
C=CC(=O)Nc1ccc(F)c(Nc2nc(Nc3cnn(C)c3)ncc2-c2ccc(Cl)c(F)c2)c1 | 20
C=CC(=O)Nc1cc(F)cc(Nc2nc(Nc3cnn(C)c3)ncc2-c2cc(F)c(C(F)(F)F)c(F)c2)c1 | 22
C=CC(=O)Nc1ccc(F)c(Nc2nc(Nc3cnn(C)c3)ncc2-c2cc(F)cc(F)c2)c1 | 27

(a) C=CC(=O)Nc1ccc(F)c(Nc2nc(Nc3cn(C)nc3Cl)ncc2-c2ccc(F)c(Cl)c2)c1
(b) C=CC(=O)Nc1ccc(F)c(Nc2nc(Nc3cnn(C)c3)ncc2-c2ccc(F)c(OC)c2)c1
(c) C=CC(=O)Nc1ccc(F)c(Nc2nc(Nc3cnn(C)c3)ncc2-c2cc(F)cc(N(C)C)c2)c1
### Prompt Put these in order: smallest GI50 first, largest last. Your task in answering is to list the labels in the requested order.
### Response a, b, c
(a: 104 nM, b: 295 nM, c: 942 nM)

(P) C=CC(=O)Nc1ccc(F)c(Nc2nc(Nc3cnn(C)c3)ncc2-c2cnc(F)c(C(F)(F)F)c2)c1
(Q) [2H]C([2H])=CC(=O)Nc1ccc(F)c(Nc2nc(Nc3cnn(C)c3)ncc2-c2ccc(Br)c(F)c2)c1
(R) C=CC(=O)Nc1ccc(F)c(Nc2nc(Nc3cnn(C)c3)ncc2-c2ccc(C(F)(F)F)cc2OC)c1
(S) C=CC(=O)Nc1ccc(F)c(Nc2nc(Nc3cnn(C)c3)ncc2-c2ccc(Br)c(Cl)c2)c1
### Prompt Please give the order of these compounds when sorted by GI50, largest value leading. Your task in answering is to list the labels in the requested order.
### Response R, S, Q, P
(R: 3940 nM, S: 66 nM, Q: 35 nM, P: 21 nM)

(1) C=CC(=O)Nc1ccc(F)c(Nc2nc(Nc3cnn(C)c3)ncc2-c2cc(F)c(Br)c(F)c2)c1
(2) C=CC(=O)Nc1ccc(F)c(Nc2nc(Nc3cnn(C)c3)ncc2-c2ccc(N(C)CCN(C)C)c(F)c2)c1
### Prompt Problem: Given the entries 1 and 2 , determine which has the lower reported GI50. I would appreciate it if you answered with the label of your choice.
### Response 1

###

# measured-target: EGFR(D770_N771insSVD) expressing Ba/F3 stable cell line (Homo sapiens, UniProt P00533, DUP768-770, cells depend on it)
# measurement-notes: Cellular proliferation (Alamar Blue) assay, EGFR(D770_N771insSVD) Ba/F3
# Format: cell-based
# condition-info: 72 hr, read-out: D770 IC50
endpoint: GI50 (nM)

structure | GI50 / nM
C=CC(=O)Nc1ccc(F)c(Nc2nc(Nc3cnn(C)c3)ncc2-c2ccc(C)c(F)c2)c1 | 28

(a) C=CC(=O)Nc1cccc(Nc2nc(Nc3cnn(C)c3)ncc2-c2ccc(N(C)C)c(F)c2)c1
(b) C=CC(=O)Nc1ccc(F)c(Nc2nc(Nc3cnn(C)c3)ncc2-c2ccc(CN(C)C)c(F)c2)c1
(c) C=CC(=O)Nc1ccc(F)c(Nc2nc(Nc3cnn(C)c3)ncc2-c2cc(OC)ccc2Cl)c1
### Prompt Put these in order: smallest GI50 first, largest last. Your task in answering is to list the labels in the requested order.
### Response a, b, c
